assay: AUC (0 to 6 hrs) in cannula implanted rat at 5 mg/kg administered through oral gavage after 24 hrs by LC-MS/MS analysis; assay type: ADME, organism-based; design: dose 5 mg/kg, time < 6 hr, route oral; conditions: in vivo
Could you mark each record fulfilled if its AUC(0-t) at 6 h falls strictly under 0.8 µM·h, and not fulfilled if it equals or exceeds it?

[Q] Record `C=C(C)[C@@H]1CC[C@]2(C(=O)NCCN(C(C)C)C(C)C)CC[C@]3(C)[C@H](CC[C@@H]4[C@@]5(C)CC=C(c6ccc(C(=O)O)cc6)C(C)(C)[C@@H]5CC[C@]43C)[C@@H]12` : is its AUC(0-t) at 6 h strictly below 0.8 µM·h?
[A] not fulfilled

[Q] Record `C=C(C)[C@@H]1CC[C@]2(C(=O)NCCc3ccccn3)CC[C@]3(C)[C@H](CC[C@@H]4[C@@]5(C)CC=C(c6ccc(C(=O)O)cc6)C(C)(C)[C@@H]5CC[C@]43C)[C@@H]12` : is its AUC(0-t) at 6 h strictly below 0.8 µM·h?
[A] fulfilled

[Q] Record `C=C(C)[C@@H]1CC[C@]2(C(=O)NCCN(CC)CC(=O)O)CC[C@]3(C)[C@H](CC[C@@H]4[C@@]5(C)CC=C(c6ccc(C(=O)O)cc6)C(C)(C)[C@@H]5CC[C@]43C)[C@@H]12` : is its AUC(0-t) at 6 h strictly below 0.8 µM·h?
[A] fulfilled

[Q] Record `C=C(C)[C@@H]1CC[C@]2(C(=O)NCCC(C)C)CC[C@]3(C)[C@H](CC[C@@H]4[C@@]5(C)CC=C(c6ccc(C(=O)O)cc6)C(C)(C)[C@@H]5CC[C@]43C)[C@@H]12` : is its AUC(0-t) at 6 h strictly below 0.8 µM·h?
[A] not fulfilled

[Q] Record `C=C(C)[C@@H]1CC[C@]2(C(=O)NCCN(C)C)CC[C@]3(C)[C@H](CC[C@@H]4[C@@]5(C)CC=C(c6ccc(C(=O)O)cc6)C(C)(C)[C@@H]5CC[C@]43C)[C@@H]12` : is its AUC(0-t) at 6 h strictly below 0.8 µM·h?
[A] not fulfilled

[Q] Record `C=C(C)[C@@H]1CC[C@]2(C(=O)NCCC(=O)O)CC[C@]3(C)[C@H](CC[C@@H]4[C@@]5(C)CC=C(c6ccc(C(=O)O)cc6)C(C)(C)[C@@H]5CC[C@]43C)[C@@H]12` : is its AUC(0-t) at 6 h strictly below 0.8 µM·h?
[A] not fulfilled

[Q] Record `C=C(C)[C@@H]1CC[C@]2(C(=O)NCCCN(C)C)CC[C@]3(C)[C@H](CC[C@@H]4[C@@]5(C)CC=C(c6ccc(C(=O)O)cc6)C(C)(C)[C@@H]5CC[C@]43C)[C@@H]12` : is its AUC(0-t) at 6 h strictly below 0.8 µM·h?
[A] fulfilled
